FYI, the data here is from ChEMBL document CHEMBL5291721.

study-system: Gamma-aminobutyric acid receptor subunit alpha-1 (Rattus norvegicus); further: assay procedure not described here
Sequence (P62813 whole entry): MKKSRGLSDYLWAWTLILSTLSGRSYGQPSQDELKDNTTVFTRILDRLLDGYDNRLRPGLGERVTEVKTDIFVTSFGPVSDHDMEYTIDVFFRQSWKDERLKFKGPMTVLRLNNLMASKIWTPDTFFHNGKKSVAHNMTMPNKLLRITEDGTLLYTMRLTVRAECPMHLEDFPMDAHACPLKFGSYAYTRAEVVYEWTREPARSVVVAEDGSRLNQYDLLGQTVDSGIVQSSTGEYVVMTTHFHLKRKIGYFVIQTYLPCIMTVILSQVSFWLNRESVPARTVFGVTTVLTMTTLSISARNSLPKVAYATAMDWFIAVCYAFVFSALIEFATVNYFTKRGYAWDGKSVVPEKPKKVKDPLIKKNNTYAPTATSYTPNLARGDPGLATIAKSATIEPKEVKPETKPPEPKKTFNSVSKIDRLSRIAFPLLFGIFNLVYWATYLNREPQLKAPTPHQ
Format: functional

compound	AC50
O=C(CCCN1CCC(O)(c2ccc(Br)cc2)CC1)c1ccc(F)cc1	> 30 µM
CO[C@H]1C[C@H](O[C@H]2CC[C@@]3(C)[C@H](CC[C@@H]4[C@@H]3CC[C@]3(C)[C@@H](C5=CC(=O)OC5)[C@@H](OC(C)=O)C[C@]43O)C2)O[C@@H](C)[C@@H]1O	> 30 µM
COc1cc(N)c(Cl)cc1C(=O)NC1CCN(CCCOc2ccc(F)cc2)CC1OC (centres undefined) [CISAPRIDE]	> 10 µM
O=C1OC(OC(=O)c2cccnc2Nc2cccc(C(F)(F)F)c2)c2ccccc21 (centres undefined) [TALNIFLUMATE]	> 30 µM

* * *

For reference, AC50 measured on Androgen receptor (Rattus norvegicus):
assay-metric: AC50

>>> print(df.to_string())
                                    molecule    result
 0  O=C(/C=C/c1cccc(S(=O)(=O)Nc2ccccc2)c1)NO   > 30 µM
 1  COc1cc(C)c(/C=C/C(C)=C/C=C/C(C)=C/C(=O)O)c(C)c1C    4.6 µM
 2  O=C(c1cc(Cc2n[nH]c(=O)c3ccccc23)ccc1F)N1CCN(C(=O)C2CC2)CC1   > 30 µM
 3  CC=CC1=C(C(=O)O)N2C(=O)[C@@H](NC(=O)[C@H](N)c3ccc(O)cc3)[C@H]2SC1   > 30 µM
 4  CN(Cc1cnc2nc(N)nc(N)c2n1)c1ccc(C(=O)N[C@@H](CCC(=O)O)C(=O)O)cc1 [METHOTREXATE]   > 30 µM
 5  C=C1c2cccc(O)c2C(=O)C2=C(O)[C@]3(O)C(=O)C(C(N)=O)=C(O)[C@@H](N(C)C)[C@@H]3[C@@H](O)[C@H]12   > 30 µM
 6           Cc1ccc(C)c(OCCCC(C)(C)C(=O)O)c1   > 30 µM
 7  CCOc1nc2cccc(C(=O)O)c2n1Cc1ccc(-c2ccccc2-c2nnn[nH]2)cc1   > 30 µM
 8  O=C1Nc2ccc(Cl)cc2C(c2ccccc2Cl)=NC1O (stereo not drawn)   > 30 µM
 9         Cc1ccccc1-n1c(CF)nc2ccc(N)cc2c1=O   > 30 µM
10  O=C(O)c1ccc(NC(=O)[C@H](Cc2ccc(O)cc2)NC(=O)c2ccccc2)cc1 [BENTIROMIDE]   > 10 µM
11        CCCN(CCC)S(=O)(=O)c1ccc(C(=O)O)cc1   > 10 µM
12  CN(C)Cc1nnc2n1-c1ccc(Cl)cc1C(c1ccccc1)=NC2   > 10 µM
13   CNC(=C[N+](=O)[O-])NCCSCc1csc(CN(C)C)n1   > 10 µM
14  Fc1ccc([C@@H]2CCNC[C@H]2COc2ccc3c(c2)OCO3)cc1   > 30 µM
15  CC(=O)[C@H]1CC[C@H]2[C@@H]3C[C@H](C)C4=CC(=O)CC[C@]4(C)[C@H]3[C@@H](O)C[C@]12C  0.257 µM
16   CCOC(=O)c1ncn2c1CN(C)C(=O)c1cc(F)ccc1-2   > 10 µM
17  CC(=O)c1ccc(S(=O)(=O)NC(=O)NC2CCCCC2)cc1 [ACETOHEXAMIDE]   > 10 µM
